Just for reference, ChEMBL document CHEMBL1961873 is where these values come from.

Tested on: Platelet-derived growth factor receptor alpha (Homo sapiens), P16234 [V561D]
Sequence (P16234 whole entry V561D): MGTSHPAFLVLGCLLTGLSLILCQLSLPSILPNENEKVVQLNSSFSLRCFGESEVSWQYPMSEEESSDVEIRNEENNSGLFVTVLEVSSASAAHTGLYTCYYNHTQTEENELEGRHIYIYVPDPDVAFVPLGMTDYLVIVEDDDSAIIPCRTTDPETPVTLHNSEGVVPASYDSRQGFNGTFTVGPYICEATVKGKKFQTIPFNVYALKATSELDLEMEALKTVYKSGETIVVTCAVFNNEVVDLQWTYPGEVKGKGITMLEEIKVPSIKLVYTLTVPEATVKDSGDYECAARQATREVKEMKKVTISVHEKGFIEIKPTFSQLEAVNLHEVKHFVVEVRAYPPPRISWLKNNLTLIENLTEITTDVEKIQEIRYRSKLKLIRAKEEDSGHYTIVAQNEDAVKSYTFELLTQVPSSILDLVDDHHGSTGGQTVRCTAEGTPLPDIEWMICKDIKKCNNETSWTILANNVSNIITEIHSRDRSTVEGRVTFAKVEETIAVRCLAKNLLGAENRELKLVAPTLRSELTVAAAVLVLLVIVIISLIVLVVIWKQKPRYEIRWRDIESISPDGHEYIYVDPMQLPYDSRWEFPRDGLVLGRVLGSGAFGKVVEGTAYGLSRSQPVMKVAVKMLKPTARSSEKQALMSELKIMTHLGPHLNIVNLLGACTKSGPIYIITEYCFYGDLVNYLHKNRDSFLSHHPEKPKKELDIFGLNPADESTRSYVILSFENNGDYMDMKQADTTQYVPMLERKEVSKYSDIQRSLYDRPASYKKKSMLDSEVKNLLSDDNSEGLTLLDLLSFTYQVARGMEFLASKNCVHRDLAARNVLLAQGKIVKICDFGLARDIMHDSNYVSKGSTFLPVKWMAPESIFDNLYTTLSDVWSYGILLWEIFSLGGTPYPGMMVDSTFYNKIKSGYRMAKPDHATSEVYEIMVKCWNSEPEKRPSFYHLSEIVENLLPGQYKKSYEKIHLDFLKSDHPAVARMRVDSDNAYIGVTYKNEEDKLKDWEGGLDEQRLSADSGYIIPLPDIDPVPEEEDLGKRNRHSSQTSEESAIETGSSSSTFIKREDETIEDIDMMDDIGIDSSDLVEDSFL
Settings: at 0.1 µM
Reported inhibition by item:
# output: number + unit

Answered cases to consult:
{"columns": ["compound", "system_under_test", "inhibition"],
 "data": [
  ["CNC(=O)c1sc(-n2cnc3cc(OC)c(OC)cc32)cc1OCc1ccccc1C(F)(F)F", "Platelet-derived growth factor receptor alpha (Homo sapiens), P16234 [V561D]", "7.81%"],
  ["O=C(O[C@H]1CN[C@H](C#Cc2cc3ncnc(Nc4ccc5c(cnn5Cc5ccccc5)c4)c3s2)C1)N1CCOCC1", "Platelet-derived growth factor receptor alpha (Homo sapiens), P16234 [V561D]", "2.22%"],
  ["Cc1nnc(-c2cccc(-c3ccc(C(=O)NCC4CC4)cc3)c2)o1", "Platelet-derived growth factor receptor alpha (Homo sapiens), P16234 [V561D]", "4.66%"],
  ["CC1=C(C(=O)Nc2ccc3[nH]nc(C)c3c2)C(c2ccc(C(F)(F)F)cc2)CC(=O)N1 (stereo not given)", "Platelet-derived growth factor receptor alpha (Homo sapiens), P16234 [V561D]", "-0.51%"]
]}

Then this compound:
Give the measured inhibition of COc1cc(N2CCN(C(C)C)CC2)ccc1Nc1nc(Nc2cccc3ncccc23)c2cc[nH]c2n1 .
3.08%

====

Target: Serine/threonine-protein kinase TBK1 (Homo sapiens) (UniProt Q9UHD2);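 note: values are mean inhibition of TBK1, screened as part of the GSK published kinase inhibitor set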
Sequence (Q9UHD2 whole entry): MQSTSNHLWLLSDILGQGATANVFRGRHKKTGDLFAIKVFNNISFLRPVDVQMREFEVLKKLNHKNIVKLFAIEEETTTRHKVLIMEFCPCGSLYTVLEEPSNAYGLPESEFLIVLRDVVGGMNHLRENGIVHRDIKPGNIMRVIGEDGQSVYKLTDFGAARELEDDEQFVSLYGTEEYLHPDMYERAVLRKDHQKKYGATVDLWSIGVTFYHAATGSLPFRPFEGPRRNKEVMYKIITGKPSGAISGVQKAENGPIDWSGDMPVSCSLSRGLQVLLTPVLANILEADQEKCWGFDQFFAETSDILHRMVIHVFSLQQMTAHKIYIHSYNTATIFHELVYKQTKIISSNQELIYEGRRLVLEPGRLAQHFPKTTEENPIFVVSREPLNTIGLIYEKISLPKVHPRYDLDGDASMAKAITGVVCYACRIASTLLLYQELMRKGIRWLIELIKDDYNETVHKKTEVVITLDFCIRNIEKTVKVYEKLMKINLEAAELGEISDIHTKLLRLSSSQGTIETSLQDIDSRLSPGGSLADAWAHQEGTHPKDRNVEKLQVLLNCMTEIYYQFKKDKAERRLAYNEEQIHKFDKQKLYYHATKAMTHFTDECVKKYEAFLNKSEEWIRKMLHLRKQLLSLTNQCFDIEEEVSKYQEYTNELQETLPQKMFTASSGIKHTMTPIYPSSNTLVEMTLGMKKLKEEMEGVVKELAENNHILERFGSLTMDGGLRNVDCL
Settings: at 1 µM
experimental_readout: inhibition (%)
Your answer should be a plain number; it is taken to be in %.

Some compounds with known inhibition results, for comparison:
{"columns": ["chem_smiles", "inhibition [%]"],
 "data": [
  ["COc1cc2c(cc1Nc1nc(Nc3cccc(F)c3C(N)=O)c3cc[nH]c3n1)N(C(=O)CN1CCN(C(C)C)CC1)CC2", 3.05],
  ["CCCNc1cccc(-n2ncc3c(N/N=C/c4ccncc4)ncnc32)c1", 20.2],
  ["NS(=O)(=O)c1ccc(N/N=C2\\C(=O)Nc3cccc(CCc4ccncc4)c32)cc1", 4.17],
  ["NS(=O)(=O)c1cccc(N/C=C2\\C(=O)Nc3ccccc32)c1", 14.4],
  ["COc1ccc(Nc2ncc(-c3ccccc3)o2)cc1OC", 10.7]
]}

Field request: inhibition | item: CCn1c(-c2nonc2N)nc2cncc(C(=O)NCCNC)c21
9.32

Then what about the compound CS(=O)(=O)CCNCc1ccc(-c2ccc3ncnc(Nc4ccc(OCc5cccc(C(F)(F)F)c5)cc4)c3c2)o1 ?
6.44

Note, next up: COc1cc(Nc2ncc(-c3ccccc3)o2)cc(OC)c1
4.2

Try the compound CS(=O)(=O)CCNCc1ccoc1-c1ccc2ncnc(Nc3ccc(OCc4ccccc4)cc3)c2c1
-2.25

Would you mind doing COc1cc(N2CCN(C(C)C)CC2)ccc1Nc1nc(Nc2cccc3ncccc23)c2cc[nH]c2n1 as well?
0.59

====

Molecular target: Muscle, skeletal receptor tyrosine-protein kinase (Homo sapiens);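 note: values are mean inhibition of MuSK from the GSK PKIS kinase screening panel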
Sequence (whole entry): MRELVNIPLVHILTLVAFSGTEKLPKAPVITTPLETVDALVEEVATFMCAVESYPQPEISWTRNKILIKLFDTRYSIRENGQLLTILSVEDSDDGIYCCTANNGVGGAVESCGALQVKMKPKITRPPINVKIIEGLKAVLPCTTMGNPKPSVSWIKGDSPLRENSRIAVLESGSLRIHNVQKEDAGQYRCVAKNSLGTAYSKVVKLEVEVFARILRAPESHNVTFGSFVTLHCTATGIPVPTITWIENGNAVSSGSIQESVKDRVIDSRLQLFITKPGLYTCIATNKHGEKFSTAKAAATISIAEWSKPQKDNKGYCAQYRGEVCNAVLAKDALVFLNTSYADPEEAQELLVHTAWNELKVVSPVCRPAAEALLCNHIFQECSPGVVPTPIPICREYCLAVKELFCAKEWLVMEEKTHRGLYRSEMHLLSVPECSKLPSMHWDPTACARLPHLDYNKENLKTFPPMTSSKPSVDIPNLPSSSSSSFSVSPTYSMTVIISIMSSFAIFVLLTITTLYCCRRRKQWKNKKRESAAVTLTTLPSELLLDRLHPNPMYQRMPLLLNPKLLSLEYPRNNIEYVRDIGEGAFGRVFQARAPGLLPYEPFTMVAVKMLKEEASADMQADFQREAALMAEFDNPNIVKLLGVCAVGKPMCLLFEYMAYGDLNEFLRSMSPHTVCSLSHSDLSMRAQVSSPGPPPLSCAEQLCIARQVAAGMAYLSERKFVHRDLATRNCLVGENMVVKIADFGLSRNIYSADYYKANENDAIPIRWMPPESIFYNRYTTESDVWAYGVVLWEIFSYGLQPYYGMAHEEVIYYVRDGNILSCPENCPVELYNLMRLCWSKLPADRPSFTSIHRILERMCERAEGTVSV
Settings: at 0.1 µM
Okay, here is how we bin by inhibition: lower segment = under 2%, middle segment = from 2% up to 6%, upper segment = 6% and over

Class? Entry: CC(C)c1ccc(-c2cc(-c3c[nH]nc3-c3ccccn3)ccn2)cc1
middle segment

Next: CC1(C)CC(n2cnc(-c3ccc(F)cc3)c2-c2ccnc(N)n2)CC(C)(C)N1
lower segment

Next: Cc1c2ccc(N(C)c3ccnc(Nc4cccc(S(N)(=O)=O)c4)n3)cc2nn1C
middle segment

Now the same for CNC(=O)c1ncccc1Nc1nc(Nc2cc3c(cc2OC)CCCN3C(=O)CN(C)C)nc2[nH]ccc12
middle segment

Entry FC(F)(F)CNc1nccc(-c2cnn3ncccc23)n1 please
middle segment

Can you handle COC(=O)Nc1nc2ccc(Oc3ccc(NC(=O)Nc4cc(C(F)(F)F)ccc4F)cc3)cc2s1 next?
upper segment

// query: CS(=O)(=O)CCNCc1ccoc1-c1ccc2ncnc(Nc3ccc(OCc4ccccc4)cc3)c2c1
lower segment

Can you handle NS(=O)(=O)c1ccc(N/N=C2\C(=O)Nc3ccc(C(=O)NCc4ccncc4)cc32)cc1 next?
upper segment

Then what about the molecule CS(=O)(=O)Nc1ccc(-c2cc(-c3ccccc3)cc(C(N)=O)c2N)cc1 ?
lower segment

# repeat for COc1ccc(-c2nn3ncccc3c2-c2ccnc(Nc3ccc(F)c(F)c3)n2)cc1
middle segment
